# measurement_protocol: CPT directional transport across MDCK II/wt cell monolayers
# Format: in vitro ADME, dog
# stated_conditions: dog, MDCK, pH 7.4
measured_parameter: efflux ratio at 105 min

> print(dat)
                                   compound  observed.value
1  CC[C@@]1(O)C(=O)OCc2c1cc1n(c2=O)Cc2cc3ccccc3nc2-1 [CPT, 20-(S)-camptothecin]              ~1
